experiment: Cell Viability - Jurkat (AID 426); details: qHTS;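 further: potency means the concentration at half of the fitted maximal effect; cells exposed to compound for 40 hours at 37 °C before ATP read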
Records with an inconclusive call do not appear. Active and inactive are the calls of the source.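 How the source made its calls: active means dose-dependent loss of cell ATP signal giving a full or clear fitted curve, ranked by lower potency value; inconclusive means weak partial curve or response only at the top dose; inactive means no loss of viability signal.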
# valid calls are yes (1) for active, no (0) for inactive; nothing else

Example entries and their recorded answers appear below.
# Compound, Cat
records = [
    ("Nc1c(Cl)c(Cl)nc(C(=O)O)c1Cl", "no (0)"),
    ("Cc1ccc([N+](=O)[O-])cc1C", "no (0)"),
    ("c1nc[nH]n1", "no (0)"),
    ("OCC(Br)CBr (centres undefined)", "no (0)"),
]

Exercise: Please let me know the test result on file for CC(C)(c1ccccc1)c1ccc(O)cc1 .
Solution: no (0)

Exercise: Please let me know the test result on file for N#CCCCl .
Solution: no (0)

Exercise: Please let me know the test result on file for ClC(Cl)=C(c1ccc(Cl)cc1)c1ccc(Cl)cc1 .
Solution: no (0)

Exercise: Please let me know the test result on file for CCCSC(=O)Cl .
Solution: no (0)

Exercise: Please let me know the test result on file for C=CC1CC=CCC1 (centres undefined) .
Solution: no (0)

Exercise: Please let me know the test result on file for OCC1CO1 (centres undefined) .
Solution: no (0)

---

assay: Cellular Toxicity (caspase-3) Renal Proximal Tubule (AID 667); conditions: renal proximal tubule cells; at 91.7 µM (top of the series), primary cells freshly taken from rat, solvent-only wells 0%, staurosporine 100% unless noted;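 further: cells exposed to compound for 16 hours at 37 °C before detection; 0% = DMSO basal and 100% = 10 µM staurosporine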
Activity calls are given as the source filed them. Calls follow the shape of the dose curve; as a rule, active = well fitted activation curve with a large enough effect; inconclusive = small, poorly fitted or top-dose-only effect, or effect the other way; inactive = flat fitted curve, though single readings scatter.
Reported caspase-3 activation values for the following molecules.

# Molecule, Recorded metric, Result
measured = [
    ("Cc1ccc2ccccc2c1", "caspase-3 activation", "18.4% (inactive)"),
]

Exercise: Need caspase-3 activation of C=CC(=O)OCC , thanks.
Solution: -0.996% (inactive)

Exercise: Need caspase-3 activation of O=C(Cl)C(Cl)(Cl)Cl , thanks.
Solution: -1.87% (inactive)

Exercise: Need caspase-3 activation of CCC[CH2][Sn]([Cl])([Cl])[Cl] , thanks.
Solution: 6.84% (inactive)

Exercise: Need caspase-3 activation of c1ccc(N=Nc2ccccc2)cc1 , thanks.
Solution: 1.95% (inactive)

Exercise: Need caspase-3 activation of CC(O)CCl (stereo not drawn) , thanks.
Solution: 7.82% (inactive)

Exercise: Need caspase-3 activation of S=C=Nc1cccc2ccccc12 , thanks.
Solution: -4.28% (inactive)

Exercise: Need caspase-3 activation of O=S1OCC2C(CO1)C1(Cl)C(Cl)=C(Cl)C2(Cl)C1(Cl)Cl (stereo not drawn) , thanks.
Solution: 8.37% [at 91.7 µM] (inactive)

---

system: CP305; test: qHTS profiling for inhibitors of Plasmodium falciparum proliferation (AID 504749); further: nearly all actives have a fitted effect of over 60% in size; settings: P. falciparum in erythrocytes, SYBR Green DNA, 72 h; series mostly up to 28.7 µM
Results filed as inconclusive are left out. Activity calls are given as the source filed them. The call rests on the fitted dose curve; in most records, active means well fitted inhibition curve with a large enough effect; inconclusive means small, poorly fitted or top-dose-only effect; inactive means flat fitted curve, though single readings scatter.
# valid calls are active, inactive; nothing else

# Molecule, Cat
rows = [
    ("ClC1=C(Cl)C2(Cl)C3C4CC(C5OC45)C3C1(Cl)C2(Cl)Cl (stereo unspecified)", "inactive"),
    ("COc1cc(N)c(Cl)cc1C(=O)N[C@@H]1CN2CCC1CC2", "inactive"),
    ("C=CC1CN2CCC1CC2C(OC(=O)OCC)c1ccnc2ccc(OC)cc12 (stereo unspecified)", "active"),
    ("CCN[C@]1(c2cccs2)CCCCC1=O", "inactive"),
    ("CNC(C)[C@@H](O)c1ccccc1 (stereo partly specified)", "inactive"),
]

Exercise: Please let me know the test result on file for O=c1ccc2cc(O[C@H]3O[C@@H](CO)[C@@H](O)[C@@H](O)[C@@H]3O)c(O)cc2o1 .
Solution: inactive
